The measured values listed here are drawn from ChEMBL document CHEMBL1201862.

System: H4
Experiment: Luminescence Cell-Based Dose Response HTS to Identify Activators of 5'UTR Stem-Loop Driven Prion Protein mRNA Translation in H4 Neuroglioblastoma Cells. [Related pubchem assays: 1829 (Project Summary), 1814 (Primary HTS)]
Type: functional
Details: Homo sapiens
Activity calls are given as the source filed them.

Smiles repr | EC50
CC(C)c1ccc(/C=C2\SC(=O)N(CC(=O)NCCCn3ccnc3)C2=O)cc1 | 18.7 µM (active)
CCOC(=O)C1CCN(c2ccc(-c3cccs3)nn2)CC1 | 96.1 µM (active)
COc1ccc(C(=O)C[n+]2ccccc2C=NO)cc1 | 32 µM (active)
O=C(COc1ccccc1F)N/N=C1\CCCc2ccccc21 | 53.3 µM (inconclusive)
COC(=O)c1ccc(NS(=O)(=O)NC(=O)c2cn(C)c3ccccc23)cc1 | > 120 µM (not active)
CCCc1cc2c(=O)c(-c3ccc4c(c3)OCCO4)coc2cc1OC(=O)c1ccco1 | > 120 µM (not active)
CCSc1nnc(-c2c[nH]c3ccccc23)o1 | 24.7 µM (inconclusive)
Cc1ccc(S(=O)(=O)c2cc3c(=O)n4ccccc4nc3n(CCc3ccccc3)c2=N)cc1 | 0.713 µM (active)

====

Recorded AC50, one value per entry.
Target: UniProt Q06710
Sequence (Q06710 whole entry): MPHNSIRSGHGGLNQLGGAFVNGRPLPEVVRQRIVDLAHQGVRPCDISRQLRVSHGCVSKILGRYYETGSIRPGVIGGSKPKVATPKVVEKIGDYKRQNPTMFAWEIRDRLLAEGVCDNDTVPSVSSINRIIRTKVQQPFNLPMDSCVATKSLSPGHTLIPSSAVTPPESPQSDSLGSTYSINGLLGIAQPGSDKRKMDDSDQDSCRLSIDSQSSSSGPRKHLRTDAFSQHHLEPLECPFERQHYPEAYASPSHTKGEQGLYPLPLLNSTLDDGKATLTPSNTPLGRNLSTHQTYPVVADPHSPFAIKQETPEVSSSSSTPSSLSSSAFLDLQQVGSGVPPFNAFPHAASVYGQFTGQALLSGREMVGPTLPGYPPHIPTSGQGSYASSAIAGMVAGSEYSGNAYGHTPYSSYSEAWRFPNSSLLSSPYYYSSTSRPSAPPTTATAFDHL
Assay: inhibitors of PAX8-driven TPO luciferase reporter, dose response, RMG-I cells, cherry-pick (AID 687027);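 note: luciferase reporter driven by Pax8 target thyroperoxidase promoter measured by SteadyGlo luminescence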
Assay type: functional, cell-based
Active and inactive are the calls of the source.

Smiles repr | AC50
C[C@@H]1CN([C@H](C)CO)C(=O)Cc2cc(NC(=O)Nc3ccc(F)cc3)ccc2O[C@@H]1CN(C)Cc1ccc(Cl)c(Cl)c1 | 18.4 µM (active)
COc1ccc2c(C)nc(Nc3nc(O)cc(-c4ccccc4)n3)nc2c1 | 2.61 µM (active)
CCN(CC(=O)Nc1c(F)cccc1F)C(=O)c1cc(S(=O)(=O)N(C)C)ccc1N1CCCC1 | 7.72 µM (active)
C[C@@H]1CCCCO[C@@H](CN(C)Cc2ccc(C(F)(F)F)cc2)[C@H](C)CN([C@H](C)CO)C(=O)c2cc(NC(=O)c3ccccc3)ccc2O1 | 9.55 µM (active)
Cc1ccc(S(=O)(=O)Nc2ccc3c(c2)C(=O)N([C@H](C)CO)C[C@H](C)[C@@H](CN(C)S(=O)(=O)c2ccc(C)cc2)OCCCC[C@H](C)O3)cc1 | 5.76 µM (active)

====

Recorded EC50, one value per entry.
Assay: C. albicans growth with fluconazole, confirmation, fluorescence, retest (AID 2467)
Format: functional, cell-based
Active and inactive are the calls of the source.

Smiles repr | EC50
CCc1nnc(NC(=O)CSc2nc(SC)ns2)s1 | 2.88 µM (active)
COc1ccc(CCNC(=O)c2c(O)c3ccccc3n(C)c2=O)cc1 | > 38 µM (not active)
COC(=O)/C(=C\c1ccc([N+](=O)[O-])o1)NC(=O)c1ccccc1 | 0.53 µM (active)
Cc1[nH]c2ccccc2c1/C=C/c1cc[n+](C)cc1 | > 38 µM (not active)

====

Molecular target: Microphthalmia-associated transcription factor (Homo sapiens)
Sequence (O75030 whole entry): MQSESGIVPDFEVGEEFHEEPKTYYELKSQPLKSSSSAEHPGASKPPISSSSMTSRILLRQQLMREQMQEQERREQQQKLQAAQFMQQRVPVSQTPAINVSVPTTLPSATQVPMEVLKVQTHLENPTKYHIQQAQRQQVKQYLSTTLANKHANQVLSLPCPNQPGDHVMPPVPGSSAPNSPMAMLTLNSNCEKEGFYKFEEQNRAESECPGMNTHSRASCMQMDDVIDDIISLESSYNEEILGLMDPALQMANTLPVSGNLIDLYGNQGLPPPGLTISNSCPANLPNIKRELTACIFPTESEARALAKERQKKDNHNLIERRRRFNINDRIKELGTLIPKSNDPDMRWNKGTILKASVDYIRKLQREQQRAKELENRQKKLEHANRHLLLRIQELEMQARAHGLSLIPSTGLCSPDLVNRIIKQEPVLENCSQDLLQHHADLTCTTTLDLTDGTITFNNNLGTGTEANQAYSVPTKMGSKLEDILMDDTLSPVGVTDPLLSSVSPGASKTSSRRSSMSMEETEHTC
Experiment: TRPM1 promoter luciferase signal decrease, dose response, MITF inhibitor project, cell-based, SK-MEL-5, cherry-picked, set 3 (AID 493073);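 note: SK-MEL-5 melanoma cells with luciferase driven by the MITF target TRPM1 promoter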
Format: functional
The source made the active and inactive calls.

Compound | AC50
COc1ccccc1CNCC(O)Cn1c2ccccc2c2ccccc21 (configuration not stated) | 18.7 µM (active)
Cc1ccc(NC(=O)CCl)cc1S(=O)(=O)N1CCCCCC1 | 7.55 µM (active)
Cc1cc(-n2c(C)cc(C(=O)CCl)c2C)no1 | 5.5 µM (active)
COc1ccc2c(C)nc(Nc3nc(O)cc(-c4ccccc4)n3)nc2c1 | 2.91 µM (active)
COc1ccc(CCn2c(=S)[nH]c3cc(C(=O)NCc4ccco4)ccc3c2=O)cc1OC | 17.7 µM (active)
Cc1ccn2c(Nc3ccccc3)c(-c3ccccn3)nc2c1 | 9.31 µM (active)
CCN1CCN(c2ccc(Nc3ccnc4ccccc34)cc2)CC1 | 12.3 µM (active)
